Test: physchem
Settings: physiological saline solution, saline or isotonic, thermodynamic from solid
solubility values by entry
Value expressed in µg/mL; do not type the unit.

O=C(Nc1cccc(-n2c(=O)c(Cc3cccnc3)nc3cccnc32)c1)c1cc(Cl)cc(Cl)c1.O=S(=O)(O)O [sulfate, reference compound] | 38.9

Okay, now this compound:
// query Reported solubility for CS(=O)(=O)O.O=C(Nc1cccc(-n2c(=O)c(Cc3cccnc3)nc3cccnc32)c1)c1cc(Cl)cc(Cl)c1 [A01 crystal] : what is it?
// result 43.9

----------
Experiment: physchem
Conditions: water, thermodynamic from solid
Readout kind: solubility at 30 min
State the value with its unit after it.

// query Reported solubility at 30 min for CS(=O)(=O)O.O.O.O=C(Nc1cccc(-n2c(=O)c(Cc3cccnc3)nc3cccnc32)c1)c1cc(Cl)cc(Cl)c1 : what is it?
// result 887 µg/mL

----------
Assay: physchem
Conditions: distilled water for injection, water, thermodynamic from solid
solubility values by entry
Value expressed in µg/mL; do not type the unit.

CS(=O)(=O)O.O=C(Nc1cccc(-n2c(=O)c(Cc3cccnc3)nc3cccnc32)c1)c1cc(Cl)cc(Cl)c1 | 637

Okay, now this molecule:
// query Reported solubility for O=C(Nc1cccc(-n2c(=O)c(Cc3cccnc3)nc3cccnc32)c1)c1cc(Cl)cc(Cl)c1.O=S(=O)(O)O [sulfate, reference compound] : what is it?
// result 29.5

----------
Target: human PDE4-B1 isoform (Homo sapiens, UniProt Q07343)
Sequence (Q07343 whole entry, canonical isoform): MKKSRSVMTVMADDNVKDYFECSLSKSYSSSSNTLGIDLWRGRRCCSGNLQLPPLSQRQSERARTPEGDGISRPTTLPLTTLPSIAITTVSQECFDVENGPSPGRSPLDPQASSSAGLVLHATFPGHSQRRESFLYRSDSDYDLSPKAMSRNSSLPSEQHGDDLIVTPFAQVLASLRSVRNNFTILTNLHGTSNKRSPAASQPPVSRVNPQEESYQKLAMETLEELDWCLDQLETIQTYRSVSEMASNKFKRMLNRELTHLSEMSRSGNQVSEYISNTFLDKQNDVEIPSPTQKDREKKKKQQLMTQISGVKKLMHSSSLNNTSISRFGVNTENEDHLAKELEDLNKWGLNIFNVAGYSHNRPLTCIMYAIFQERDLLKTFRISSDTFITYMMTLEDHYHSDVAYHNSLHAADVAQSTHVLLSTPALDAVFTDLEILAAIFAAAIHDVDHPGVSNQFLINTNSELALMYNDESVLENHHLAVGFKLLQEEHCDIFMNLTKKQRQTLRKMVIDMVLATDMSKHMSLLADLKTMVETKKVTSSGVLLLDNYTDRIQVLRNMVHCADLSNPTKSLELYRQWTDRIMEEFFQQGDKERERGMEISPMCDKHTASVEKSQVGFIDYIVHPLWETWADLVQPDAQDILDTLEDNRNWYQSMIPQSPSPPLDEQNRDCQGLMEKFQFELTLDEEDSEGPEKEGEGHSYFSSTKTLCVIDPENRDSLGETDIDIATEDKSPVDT
Experiment: (A1) PDE-IV inhibitory activity, crude enzyme from CHO cells expressing the cDNA
Readout kind: IC50 (nM)
Value expressed in nM; do not type the unit.

// query Reported IC50 for CS(=O)(=O)O.O.O.O=C(Nc1cccc(-n2c(=O)c(Cc3cccnc3)nc3cccnc32)c1)c1cc(Cl)cc(Cl)c1 [Example 2, methanesulfonate dihydrate] : what is it?
// result 26
